Test system: IL-2 production
Test: Inhibition of IL-2 production in PHA-activated Jurkat cells (ELISA)
Type: cell-based
Settings: Homo sapiens, Jurkat, 20 h, PHA 2.5 μg/mL, IL-2 ELISA
OBSERVATION_TYPE: IC50

Cc1nc(NC(=O)c2c(F)cccc2F)sc1-c1cc(Br)sc1Br: 200 to 500 nM
Cc1nc(-c2nc(NC(=O)c3c(F)cccc3F)sc2-c2cccc(C(F)(F)F)c2)cs1: 200 to 500 nM
Cn1nnc(-c2cccc(-c3cnc(NC(=O)c4c(F)cccc4F)s3)c2)n1: > 1000 nM
COc1ccc(OC)c(-c2csc(NC(=O)c3c(F)cccc3F)n2)c1: > 1000 nM
Cc1noc(-c2nc(NC(=O)c3c(F)cccc3F)sc2-c2cccc(C(F)(F)F)c2)n1: 200 to 500 nM
O=C(Nc1nc(Cl)c(-c2cccc(C(F)(F)F)c2)s1)c1c(F)cccc1F: 200 to 500 nM
O=C(Nc1c(F)cccc1F)c1cnc(-c2cc(-c3nccs3)ccc2Cl)s1: 200 to 500 nM

Turning now to a further molecule:
Problem: Observed IC50 on IL-2 production for COC(=O)c1cccc(-c2sc(C(=O)Nc3c(F)cccc3F)nc2C)c1 , please.
Result: 100 to 200 nM
